System: HT29 colon
Test: NCI-60 one-dose screen, 48 h (100 = growth as untreated, 0 = no growth, -100 = all killed)
Conditions: 10 µM unless noted
About 83,000 compounds went through this panel and 20% of them were active in at least one assay; those are over-represented in the sample as a whole.
For each entry below, report its growth value.
Write down the numeric answer in % and omit the unit.

Query: Respond only with growth recorded for CC1Cc2c(Cl)ncnc2N(C)c2ccc(F)cc21 (stereo not given)
Result: 90.6

Query: Respond only with growth recorded for O=C(Cn1c(=O)sc2ccccc21)NNS(=O)(=O)c1ccccc1[N+](=O)[O-]
Result: 99.3

Query: Respond only with growth recorded for CC1(C)CC[C@]2(C(=O)O)CC[C@]3(C)C(=CC[C@@H]4[C@@]5(C)C/C(=C/O)C(=O)C(C)(C)[C@@H]5CC[C@]43C)[C@@H]2C1
Result: 26.6

Query: Respond only with growth recorded for CO[C@]12C=C/C(=C(/C(=O)OCc3cccnc3)C(=O)CCCCCCCC[C@@]3(OC)C=C/C(=C(/C(=O)OCc4cccnc4)C(=O)CCCCCCCC1)O3)O2
Result: 14.5

Query: Respond only with growth recorded for O=C(COc1ccc(-c2nc3ccccc3[nH]2)cc1)N=Nc1c(O)[nH]c2ccc(Cl)cc12
Result: 41.2

###

Test system: CAKI-1 renal
Experiment: NCI-60 one-dose screen, 48 h
Conditions: 10 µM unless noted
The panel holds about 83,000 compounds, 20% with a hit somewhere; the sample as a whole holds those more often. Activity calls are given as the source filed them. Rule for the calls: active = growth percent below 10; inactive = the rest.
Hi! Could you answer with just one of these? active, inactive

Query: Which result was noted for this compound in the test: CCCCNC(=O)Oc1ccc(/C(=C(/CC)Cc2ccccc2)c2ccc(OCCN3CCCCCC3)cc2)cc1
Result: inactive

Query: Which result was noted for this compound in the test: CCCC(=O)NC(c1ccc2c(c1)OCO2)c1ccc2cccnc2c1O (stereo not drawn)
Result: active

Query: Which result was noted for this compound in the test: CN([O-])c1nc(N(C)[O-])nc(N2CCOCC2)n1.CN([O-])c1nc(N(C)[OH2+])nc(N2CCOCC2)n1.[Fe+3]
Result: inactive

Query: Which result was noted for this compound in the test: CCCCNc1ccc(C#N)c(OCCN(CC)CC)c1
Result: inactive

Query: Which result was noted for this compound in the test: CN(C)c1ccc(Nc2cc(-c3cccc(OC(F)(F)F)c3)nc3ccc(N4CCCC4)cc23)cc1
Result: inactive

Query: Which result was noted for this compound in the test: O=C1/C(=C/c2ccc(Cl)cc2)COc2ccc(O)c(O)c21
Result: active

Query: Which result was noted for this compound in the test: Clc1ccc2c(c1)N(c1ncnc3ccc(-c4cnc5[nH]ncc5c4)cc13)CC2
Result: inactive

Query: Which result was noted for this compound in the test: COc1cc2c(c(OC)c1OC)C(=O)CC(c1cccc(NC(=O)c3ccc(Br)cc3)c1)O2 (stereo not drawn)
Result: inactive

Query: Which result was noted for this compound in the test: CC(=O)N(N=Nc1ccccc1)c1cccc2ccccc12
Result: inactive

Query: Which result was noted for this compound in the test: O=C1/C(=C/c2ccc(Cl)c(Cl)c2)CN(C(=O)C(Cl)Cl)C/C1=C\c1ccc(Cl)c(Cl)c1
Result: active

Query: Which result was noted for this compound in the test: Oc1c(Cl)cc(Cl)c2ccc(Cn3cc(-c4cc(C(F)(F)F)cc(C(F)(F)F)c4)nn3)nc12
Result: inactive

Query: Which result was noted for this compound in the test: COc1ccc2c(O)c(/C=C3\N=Nc4ncccc43)oc2c1C[C@H]1CCNC[C@H]1F
Result: active

Query: Which result was noted for this compound in the test: C[C@@H]1CCC[C@H]1CC(N)C(=O)O (stereo partly drawn)
Result: active

Query: Which result was noted for this compound in the test: CCOP(=O)(OCC)c1nc(-c2ccccc2)oc1NCc1cccnc1
Result: inactive

Query: Which result was noted for this compound in the test: CN(C)CC(=O)Nc1ccc2ncnc(Nc3ccc(Oc4cccc(C(F)(F)F)c4)c(Cl)c3)c2c1
Result: inactive

Query: Which result was noted for this compound in the test: Cc1cccnc1NC(=S)Nc1ncccc1C
Result: inactive

Query: Which result was noted for this compound in the test: CCn1c(=S)sc2c(Nc3ccc(F)cc3)nc(-c3cccnc3)nc21
Result: inactive

Query: Which result was noted for this compound in the test: CCOC(=O)C1=C(NC)OCC1=O
Result: inactive

Query: Which result was noted for this compound in the test: O=C(NNC(=O)c1ccc(-n2cc(-c3ccccc3)nn2)cc1)Nc1ccccc1
Result: inactive

Query: Which result was noted for this compound in the test: S=C(Nc1ccc(-c2nc(N3CCOCC3)c3cccn3n2)cc1)Nc1cccnc1
Result: inactive

Query: Which result was noted for this compound in the test: N#Cc1cccc(F)c1
Result: inactive

Query: Which result was noted for this compound in the test: O=[N+]([O-])c1ccc(S(=O)(=O)N2CCN(C3=NS(=O)(=O)c4ccccc4N3c3ccccc3)CC2)cc1
Result: inactive

Query: Which result was noted for this compound in the test: CCN(CC)C(=S)SC(SC(=S)N(CC)CC)C(=O)c1nnn(-c2ccc([N+](=O)[O-])cc2)c1C
Result: inactive

Query: Which result was noted for this compound in the test: CCCCCCCCn1ccc2cc(NC(=O)CN3CCN(c4nc(C)cc(Cl)n4)CC3)ccc21
Result: inactive

Query: Which result was noted for this compound in the test: O=C(CCc1nnc(Cn2cnc3nc[nH]c3c2=O)o1)c1nc2ncccc2[nH]1
Result: inactive

Query: Which result was noted for this compound in the test: C=C1C(=O)O[C@H]2[C@H]1CC/C(COC(=O)CSCCSCC(=O)OC/C1=C/CC[C@@]3(C)O[C@H]3[C@H]3OC(=O)C(=C)[C@@H]3CC1)=C\CC[C@@]1(C)O[C@@H]21
Result: active

Query: Which result was noted for this compound in the test: O=C(Nn1c2c(sc1=NCc1ccccc1)C(=O)c1ccccc1C2=O)c1cc2ccc1CCc1ccc(cc1)CC2
Result: inactive

Query: Which result was noted for this compound in the test: C=CC(=O)NCc1ccc(Nc2nccc(-c3ccc(N4CCCC4)c(C#N)c3)n2)cc1
Result: active

Query: Which result was noted for this compound in the test: N#CC1=C(N)Oc2c(sc3c(Br)cccc23)C1c1ccc(F)cc1 (stereo not drawn)
Result: inactive

Query: Which result was noted for this compound in the test: c1ccc(CNc2c3ccccc3nc3ccccc23)cc1
Result: inactive

Query: Which result was noted for this compound in the test: CC1(C)CCC(S(=O)(=O)c2ccc3c(c2)/C(=N\O)c2cc(S(=O)(=O)N4CCC(O)(c5cccc(C(F)(F)F)c5)CC4)ccc2-3)CC1
Result: active

Query: Which result was noted for this compound in the test: Cc1ccc(Cl)cc1Nc1nc(C(F)(F)F)ccc1C(=O)N/N=C/c1cccnc1
Result: inactive

Query: Which result was noted for this compound in the test: CC[C@]12C=CCN3CC[C@@]4(c5cc(NC(=O)CCC(=O)OCc6cn(Cc7ccc(F)cc7)nn6)c(OC)cc5N(C)[C@H]4[C@@](O)(C(=O)OC)[C@@H]1OC(C)=O)[C@@H]32
Result: inactive

Query: Which result was noted for this compound in the test: Oc1c(Cl)cc(Cl)c2ccc(Cn3cc(-c4ccc(C(F)(F)F)cc4)nn3)nc12
Result: inactive

Query: Which result was noted for this compound in the test: CCOC(=O)c1[nH]c(=O)c2c(C)nc(-c3ccccc3)cc2c1O
Result: inactive

Query: Which result was noted for this compound in the test: CC1Cc2c(Cl)ncnc2N(C)c2ccc(F)cc21 (stereo not drawn)
Result: inactive

Query: Which result was noted for this compound in the test: COc1ccc(C2c3sc4c(F)cccc4c3Oc3nc[nH]c(=O)c32)cc1 (stereo not drawn)
Result: inactive

Query: Which result was noted for this compound in the test: O=C(c1ccccc1)C1C(=O)N2C(=S)N(c3ccccc3)C(=O)C2C1c1ccc(Cl)cc1 (stereo not drawn)
Result: inactive
